Taken from patent US10745401B2.

method-description: Test 4: metabolic stability test in human hepatic microsome
Format: in vitro ADME
recorded-conditions: 0.1 mg/mL microsome, 0.1 μmol/L compound, 37° C., 30 minutes
test-readout: Metabolic stability in human hepatic microsome

Solved entries (count: 4):
molecule	value-reported
Cc1ccc2onc(C3CCN(CCN4CCc5cccnc5C4=O)CC3)c2c1 [Example 89]	0.050 mL/min/mg protein
O=C1c2ncccc2CCN1CCN1CCC(c2noc3ccccc23)CC1 [Example 22]	0.039 mL/min/mg protein
Cn1ncc2c1CCCC(CCN1CCN(c3nsc4ccccc34)CC1)C2=O (stereo not drawn) [Example 31]	0.305 mL/min/mg protein
O=C1c2ncccc2CCN1CCN1CCC(c2noc3cc(F)ccc23)CC1 [Example 4]	0.011 mL/min/mg protein

Q: Sample O=C1c2cccnc2CCN1CCN1CCN(c2noc3ccccc23)CC1 [Example 153] — what was its Metabolic stability in human hepatic microsome?
Result: <0.05 mL/min/mg protein

Q: Sample Cc1nccc2c1C(=O)N(CCN1CCN(c3noc4ccccc34)CC1)CC2 [Example 85] — what was its Metabolic stability in human hepatic microsome?
Result: 0.046 mL/min/mg protein
